# Measured On: p110α-p85 complex (Homo sapiens)
# Sequence (P42336 whole entry): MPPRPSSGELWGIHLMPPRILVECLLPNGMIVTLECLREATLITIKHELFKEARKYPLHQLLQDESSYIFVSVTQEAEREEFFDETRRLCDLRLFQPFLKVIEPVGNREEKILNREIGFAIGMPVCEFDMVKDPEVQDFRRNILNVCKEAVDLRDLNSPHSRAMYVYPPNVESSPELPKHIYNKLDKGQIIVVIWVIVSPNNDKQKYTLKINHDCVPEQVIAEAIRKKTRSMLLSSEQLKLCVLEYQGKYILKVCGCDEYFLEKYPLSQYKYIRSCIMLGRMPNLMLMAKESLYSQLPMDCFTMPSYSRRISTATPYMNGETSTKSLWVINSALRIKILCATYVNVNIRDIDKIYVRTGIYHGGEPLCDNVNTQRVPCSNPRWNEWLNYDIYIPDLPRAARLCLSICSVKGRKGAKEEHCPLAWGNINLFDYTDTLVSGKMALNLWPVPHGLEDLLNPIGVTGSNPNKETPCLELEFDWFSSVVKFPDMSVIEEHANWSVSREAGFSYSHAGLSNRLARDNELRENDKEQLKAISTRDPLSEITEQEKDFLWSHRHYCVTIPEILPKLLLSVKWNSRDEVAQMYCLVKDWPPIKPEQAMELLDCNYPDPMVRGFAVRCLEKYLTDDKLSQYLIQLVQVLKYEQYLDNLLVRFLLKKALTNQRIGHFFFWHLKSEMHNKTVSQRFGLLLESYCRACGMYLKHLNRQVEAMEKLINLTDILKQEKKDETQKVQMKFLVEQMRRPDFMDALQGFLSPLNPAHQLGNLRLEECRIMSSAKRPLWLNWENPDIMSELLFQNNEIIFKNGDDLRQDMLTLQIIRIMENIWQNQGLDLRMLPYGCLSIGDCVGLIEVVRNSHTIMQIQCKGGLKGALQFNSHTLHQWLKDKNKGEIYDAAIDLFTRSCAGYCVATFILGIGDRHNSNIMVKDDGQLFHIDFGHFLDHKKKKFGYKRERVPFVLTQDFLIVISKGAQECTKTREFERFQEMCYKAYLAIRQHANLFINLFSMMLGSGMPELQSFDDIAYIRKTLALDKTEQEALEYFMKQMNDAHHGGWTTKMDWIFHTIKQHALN
# Sequence (P27986 whole entry partner): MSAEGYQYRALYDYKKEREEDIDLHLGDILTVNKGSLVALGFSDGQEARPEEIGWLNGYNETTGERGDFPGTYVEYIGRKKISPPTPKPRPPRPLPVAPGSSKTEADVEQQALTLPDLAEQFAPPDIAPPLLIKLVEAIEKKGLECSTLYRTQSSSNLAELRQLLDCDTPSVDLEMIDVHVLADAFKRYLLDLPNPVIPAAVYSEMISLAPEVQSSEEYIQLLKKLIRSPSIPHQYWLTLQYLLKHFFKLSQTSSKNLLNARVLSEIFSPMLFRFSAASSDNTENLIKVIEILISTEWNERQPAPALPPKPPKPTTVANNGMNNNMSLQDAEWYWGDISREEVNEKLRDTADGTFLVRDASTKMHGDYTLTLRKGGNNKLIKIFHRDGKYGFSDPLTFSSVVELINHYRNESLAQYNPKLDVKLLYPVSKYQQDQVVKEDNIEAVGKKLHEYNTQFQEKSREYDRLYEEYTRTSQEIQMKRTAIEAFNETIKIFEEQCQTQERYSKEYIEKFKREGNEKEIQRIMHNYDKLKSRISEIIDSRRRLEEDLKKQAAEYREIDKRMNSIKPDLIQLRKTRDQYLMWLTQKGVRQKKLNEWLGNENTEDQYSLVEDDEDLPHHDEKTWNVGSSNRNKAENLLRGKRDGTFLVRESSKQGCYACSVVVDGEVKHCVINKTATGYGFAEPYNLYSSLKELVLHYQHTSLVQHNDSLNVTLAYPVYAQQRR
# Run Description: PI3-kinase p110α-p85 complex lipid kinase assay
# Recorded Conditions: read-out: IC50 PI3K 110a
Lab note: cut-off is 60 nM. Strictly less in IC50 is 1.0. Exactly 60 nM or more is 0.0.

# TODO verify IC50 < 60 nM strictly for this compound: CC(=O)Nc1nc(C)c(-c2ccc(Cl)c(S(=O)(=O)Nc3ccccc3)c2)s1 0.0

Would you kindly verify if IC50 of CCC(=O)Nc1nc(C)c(-c2ccc(OC)c(S(=O)(=O)Nc3ccc(O)cc3)c2)s1 is strictly less than 60 nM? 1.0

Given the entry COc1ccc(-c2sc(NC(=O)C3CCCC3)nc2C)cc1S(=O)(=O)Nc1ccc(O)cc1 , would its reported IC50 be below 60 nM? 0.0

In plain terms, does CC(=O)Nc1nc(C)c(-c2ccc(Br)c(S(=O)(=O)NC(C)C)c2)s1 come in under 60 nM for IC50? 1.0

Could you please tell me whether IC50 recorded for CC(=O)Nc1nc(C)c(-c2ccc(Cl)c(S(=O)(=O)NCCN3CCOCC3)c2)s1 is less than 60 nM? 1.0

Hey, just so you know, these numbers are from patent US9309236B2.
